Give measured Km for each item. Keep answers brief.
Test system: SULT1C1
assay-details: SULT1C1 enzyme activity assay: sulfate conjugation of 4-nitrophenol with 35S-PAPS, COS-1 cytosol of recombinant allozymes
Assay type: biochemical, human
applied-conditions: apparent Km for PAPS, in the presence of 10 mM 4-NP, six PAPS concentrations 0.0625 μM to 2 μM
Give the quantity in µM, number only.

[ask] For Thr239Ala: SULT1C1 polypeptide having an alanine at amino acid 239 in place of a threonine (protein) MALTSDLGKQIKLKEVEGTLLQPATVDNWSQIQSFEAKPDDLLICTYPKAGTTWIQEIVDMIEQNGDVEKCQRAIIQHRHPFIEWARPPQPSGVEKAKAMPSPRILKTHLSTQLLPPSFWENNCKFLYVARNAKDCMVSYYHFQRMNHMLPDPGTWEEYFETFINGKVVWGSWFDHVKGWWEMKDRHQILFLFYEDIKRDPKHEIRKVMQFMGKKVDETVLDKIVQETSFEKMKENPMANRSTVSKSILDQSISSFMRKGTVGDWKNHFTVAQNERFDEIYRRKMEGTSINFCMEL , what is its reported Km?
[reply] 1.14

[ask] For Phe193Leu: SULT1C1 polypeptide having a leucine residue at amino acid 193 in place of a phenylalanine (protein) MALTSDLGKQIKLKEVEGTLLQPATVDNWSQIQSFEAKPDDLLICTYPKAGTTWIQEIVDMIEQNGDVEKCQRAIIQHRHPFIEWARPPQPSGVEKAKAMPSPRILKTHLSTQLLPPSFWENNCKFLYVARNAKDCMVSYYHFQRMNHMLPDPGTWEEYFETFINGKVVWGSWFDHVKGWWEMKDRHQILFLLYEDIKRDPKHEIRKVMQFMGKKVDETVLDKIVQETSFEKMKENPMTNRSTVSKSILDQSISSFMRKGTVGDWKNHFTVAQNERFDEIYRRKMEGTSINFCMEL , what is its reported Km?
[reply] 2.95

[ask] For Arg73Gln: SULT1C1 polypeptide having a glutamine at amino acid residue 73 in place of an arginine (protein) MALTSDLGKQIKLKEVEGTLLQPATVDNWSQIQSFEAKPDDLLICTYPKAGTTWIQEIVDMIEQNGDVEKCQQAIIQHRHPFIEWARPPQPSGVEKAKAMPSPRILKTHLSTQLLPPSFWENNCKFLYVARNAKDCMVSYYHFQRMNHMLPDPGTWEEYFETFINGKVVWGSWFDHVKGWWEMKDRHQILFLFYEDIKRDPKHEIRKVMQFMGKKVDETVLDKIVQETSFEKMKENPMTNRSTVSKSILDQSISSFMRKGTVGDWKNHFTVAQNERFDEIYRRKMEGTSINFCMEL , what is its reported Km?
[reply] 0.57
